# Tested on: EutV ANTARcc (Enterococcus faecalis (V583?))
# Test: EMSA
# Test context: 10 mM Mg2+; 50 mM Hepes pH 7.5, 150 mM NaCl, 10 mM MgCl2, 2.5 ng/ul yeast tRNA, ~2 fmol RNA in 10 ul, 30 min at 25 C; EMSA on 5% native TBE gel, or DRaCALA on …
Assay metric: pKd
Please keep in mind that pKd is minus log10 of the molar concentration; only the number is needed.

Query: pKd; subject: GGGCAAAGAAUCAGAAACACAAUGGCGUGUUUUAACAAUCGGCAAAGGAGCCCAAGACUAAGUACGUG [eutP 5' leader dual hairpin RNA, wild type]
6.15

====

# Test system: EutV full length (Enterococcus faecalis (V583?))
# Test: EMSA
# Test context: unphosphorylated; 10 mM Mg2+; 50 mM Hepes pH 7.5, 150 mM NaCl, 10 mM MgCl2, 2.5 ng/ul yeast tRNA, ~2 fmol RNA in 10 ul, 30 min at 25 C; EMSA on 5% native TBE gel, or DRaCALA on …
Assay metric: pKd
Please keep in mind that pKd is minus log10 of the molar concentration; only the number is needed.

Query: pKd; subject: GGGCAAAGAAUCAGAAACACAAUGGCGUGUUUUAACAAUCGGCAAAGGAGCCCAAGACUAAGUACGUG [eutP 5' leader dual hairpin RNA, wild type]
5.00
